# Tested system: BaF3 cells expressing the target EGFR mutations (Homo sapiens, UniProt P00533, T790M/L858R, cells depend on it)
# Construct: IC50, BAF3 EGFR L858R-T790M PURO POOL; other: BAF3 EGFR L858R-T790M PURO POOL cells, MTT; IC50, BAF3 EGFR L858R-T790M PURO POOL; other: BAF3 EGFR L858R-T790M PURO POOL cells; MTT
# Sequence (P00533 whole entry T790M/L858R): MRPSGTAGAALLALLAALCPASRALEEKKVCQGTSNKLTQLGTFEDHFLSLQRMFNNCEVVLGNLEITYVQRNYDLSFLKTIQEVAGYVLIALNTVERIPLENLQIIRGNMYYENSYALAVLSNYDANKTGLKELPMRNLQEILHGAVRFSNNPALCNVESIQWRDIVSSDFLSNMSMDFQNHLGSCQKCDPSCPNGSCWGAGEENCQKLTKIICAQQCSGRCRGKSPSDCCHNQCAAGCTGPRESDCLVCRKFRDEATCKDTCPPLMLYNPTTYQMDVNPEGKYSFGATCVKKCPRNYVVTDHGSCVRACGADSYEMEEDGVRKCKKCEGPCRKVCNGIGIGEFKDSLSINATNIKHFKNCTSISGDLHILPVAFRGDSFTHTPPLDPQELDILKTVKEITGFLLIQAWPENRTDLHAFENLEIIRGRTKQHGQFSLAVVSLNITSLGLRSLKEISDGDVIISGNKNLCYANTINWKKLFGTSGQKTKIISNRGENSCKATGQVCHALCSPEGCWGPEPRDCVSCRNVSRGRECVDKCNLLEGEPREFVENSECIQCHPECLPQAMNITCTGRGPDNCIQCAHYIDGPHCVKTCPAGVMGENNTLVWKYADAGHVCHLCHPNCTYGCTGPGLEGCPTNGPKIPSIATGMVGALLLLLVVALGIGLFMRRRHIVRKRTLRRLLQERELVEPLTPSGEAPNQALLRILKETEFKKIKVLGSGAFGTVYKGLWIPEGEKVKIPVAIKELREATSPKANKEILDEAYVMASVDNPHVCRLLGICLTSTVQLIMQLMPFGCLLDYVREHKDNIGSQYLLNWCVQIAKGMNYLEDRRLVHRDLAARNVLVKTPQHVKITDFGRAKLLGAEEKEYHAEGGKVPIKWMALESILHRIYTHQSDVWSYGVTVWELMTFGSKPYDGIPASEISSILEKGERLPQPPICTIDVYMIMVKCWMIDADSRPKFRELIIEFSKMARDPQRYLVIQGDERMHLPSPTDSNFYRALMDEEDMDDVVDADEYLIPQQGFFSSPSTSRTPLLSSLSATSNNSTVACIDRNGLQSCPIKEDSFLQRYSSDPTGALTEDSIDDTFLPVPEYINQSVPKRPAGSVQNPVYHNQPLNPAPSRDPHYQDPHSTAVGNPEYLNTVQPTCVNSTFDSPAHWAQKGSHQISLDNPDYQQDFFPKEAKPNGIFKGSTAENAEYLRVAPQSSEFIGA
# Assay notes: Antiproliferative activity (MTT) against BaF3 cells expressing the target EGFR mutations
# Assay type: cell-based
# Experimental setup: BAF3 EGFR L858R-T790M PURO POOL cells, read-out: IC50, BAF3 EGFR L858R-T790M PURO POOL
Readout kind: GI50

Compound | GI50
C=C(CN1CCS(=O)(=O)CC1)C(=O)Nc1ccc(OC)c(Nc2ncc(Cl)c(Nc3ccccc3P(C)(C)=O)n2)c1 | ≥ 250 nM
C=CC(=O)Nc1cc(Nc2ncc(Cl)c(Nc3ccccc3P(C)(C)=O)n2)c(OC)cc1CCN1CCN(C)CC1 | ≥ 250 nM
C=C(CN1CCC(N2CCOCC2)CC1)C(=O)Nc1ccc(OC)c(Nc2ncc(Cl)c(Nc3ccccc3P(C)(C)=O)n2)c1 | < 50 nM
C=CC(=O)Nc1cc(Nc2ncc(Cl)c(Nc3ccccc3P(C)(C)=O)n2)c(OC)cc1N1CCC(N2CCOCC2)C1 (centres unmarked) | < 50 nM
C=CC(=O)Nc1cc(Nc2ncc(Cl)c(Nc3ccccc3P(C)(C)=O)n2)c(OC)cc1C#CCN1CCCCC1 | < 50 nM

Looking for the measured GI50 of C=CC(=O)Nc1cc(Nc2ncc(Cl)c(Nc3ccccc3P(C)(C)=O)n2)c(OC)cc1OC(COC)CN1CCC1 (centres unmarked) , can you help?
< 50 nM

Query (compound): C=CC(=O)Nc1cc(Nc2ncc(Cl)c(Nc3ccccc3P(C)(C)=O)n2)c(OC)cc1N1CCC(N2CCCN(C)CC2)CC1 ; field requested: GI50
101 to 250 nM

Can you share its GI50? I mean this compound: C=CC(=O)Nc1ccc(OC)c(Nc2cc(Nc3ncccc3P(C)(C)=O)ncn2)c1
≥ 250 nM

Item C=CC(=O)Nc1cc(Nc2ncc(Cl)c(Nc3ccccc3P(C)(C)=O)n2)c(OC)cc1OC1CCN(C)C1 (centres unmarked) has what recorded GI50?
< 50 nM

Endpoint output: GI50 of C=CC(=O)Nc1cc(Nc2ncc(Cl)c(Nc3ccccc3P(C)(C)=O)n2)c(OC)cc1N1CCC(N(C)CCOC)C1 (centres unmarked) . Value?
< 50 nM

Which measured GI50 value corresponds to COCC#CC(=O)Nc1cc(Nc2ncc(Cl)c(Nc3ccccc3P(C)(C)=O)n2)c(OC)cc1N1CCC(N(C)C)C1 (centres unmarked) ?
< 50 nM

###

List of pIC50 values.
# Tested system: human EGFR (native sequence) (Homo sapiens, UniProt P00533)
# Sequence (P00533 25-1210): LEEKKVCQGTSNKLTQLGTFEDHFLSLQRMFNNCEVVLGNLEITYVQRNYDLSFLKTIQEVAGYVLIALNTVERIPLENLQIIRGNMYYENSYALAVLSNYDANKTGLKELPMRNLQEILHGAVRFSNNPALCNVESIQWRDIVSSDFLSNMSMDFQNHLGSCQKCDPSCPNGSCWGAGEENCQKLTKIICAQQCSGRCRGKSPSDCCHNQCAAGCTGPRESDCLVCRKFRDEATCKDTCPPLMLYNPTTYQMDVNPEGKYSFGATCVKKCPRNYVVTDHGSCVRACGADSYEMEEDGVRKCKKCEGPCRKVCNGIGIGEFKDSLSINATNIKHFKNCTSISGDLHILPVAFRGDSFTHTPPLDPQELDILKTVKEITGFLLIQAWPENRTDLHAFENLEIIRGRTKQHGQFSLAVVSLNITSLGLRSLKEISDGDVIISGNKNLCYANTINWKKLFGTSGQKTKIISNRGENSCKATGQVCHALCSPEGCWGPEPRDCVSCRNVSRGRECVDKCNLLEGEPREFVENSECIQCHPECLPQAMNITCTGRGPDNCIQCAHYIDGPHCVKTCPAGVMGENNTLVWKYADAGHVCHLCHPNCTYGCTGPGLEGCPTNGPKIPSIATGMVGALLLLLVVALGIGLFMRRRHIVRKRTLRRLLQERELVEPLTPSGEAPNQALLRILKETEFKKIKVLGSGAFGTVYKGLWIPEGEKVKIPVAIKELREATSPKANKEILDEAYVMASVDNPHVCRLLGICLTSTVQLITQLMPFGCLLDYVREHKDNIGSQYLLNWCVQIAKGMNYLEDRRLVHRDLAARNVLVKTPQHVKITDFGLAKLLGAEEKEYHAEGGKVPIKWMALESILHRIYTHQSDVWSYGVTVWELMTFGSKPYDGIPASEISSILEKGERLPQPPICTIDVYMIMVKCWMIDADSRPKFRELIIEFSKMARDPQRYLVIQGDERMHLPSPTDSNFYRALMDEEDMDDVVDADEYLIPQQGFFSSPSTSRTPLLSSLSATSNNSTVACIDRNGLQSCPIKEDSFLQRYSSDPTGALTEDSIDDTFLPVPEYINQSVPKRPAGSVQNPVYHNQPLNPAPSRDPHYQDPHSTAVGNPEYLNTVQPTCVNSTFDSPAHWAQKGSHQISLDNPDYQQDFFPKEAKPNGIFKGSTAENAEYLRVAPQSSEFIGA
# Assay notes: Kinase inhibitory activity against human EGFR (native sequence)
# Format: biochemical
# Experimental setup: human EGFR native sequence; 10 μM ATP; read-out: IC50 for kinase inhibition, EGFR
pIC50: −log10 of the molar value.

Below, 2 molecules whose answers are already recorded.
Molecule | Readout kind | Assay value
C=CC(=O)Nc1cc(Nc2ncc(Cl)c(Nc3ccccc3P(C)(C)=O)n2)c(OC)cc1CN1CCN(C)CC1 | pIC50 | > 7.30
C=CC(=O)Nc1cc(Nc2ncc(Cl)c(Nc3ccccc3P(C)(C)=O)n2)c(OC)cc1O[C@H]1CCCN(C)C1 (single isomer, unassigned) | pIC50 | > 7.30

Reported pIC50 for C=CC(=O)Nc1cc(Nc2ncc(Cl)c(Nc3ccccc3P(C)(C)=O)n2)c(OC)cc1OC(COC)CN1CCC1 (stereo not drawn) : what is it?
> 7.30
